# target.or.system: Alpha-1A adrenergic receptor (Homo sapiens, UniProt P35348)
# Sequence (P35348 whole entry): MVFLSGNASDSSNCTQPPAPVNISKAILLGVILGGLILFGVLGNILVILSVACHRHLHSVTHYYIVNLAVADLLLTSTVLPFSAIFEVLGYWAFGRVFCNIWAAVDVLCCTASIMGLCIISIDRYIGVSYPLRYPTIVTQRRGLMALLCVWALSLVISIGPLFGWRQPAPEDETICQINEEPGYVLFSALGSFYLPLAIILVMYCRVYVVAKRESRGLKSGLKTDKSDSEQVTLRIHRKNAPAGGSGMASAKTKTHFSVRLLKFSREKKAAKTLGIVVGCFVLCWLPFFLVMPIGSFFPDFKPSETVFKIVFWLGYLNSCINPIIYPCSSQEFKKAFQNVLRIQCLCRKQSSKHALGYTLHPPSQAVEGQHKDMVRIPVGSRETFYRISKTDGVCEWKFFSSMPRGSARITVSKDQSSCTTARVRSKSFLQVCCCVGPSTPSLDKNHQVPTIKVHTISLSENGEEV
# procedure.text: Ability to displace [125I]HEAT from cloned human Alpha-1A adrenergic receptor stably expressed in CHO cells
# Assay type: cell-based
measurement.name: Ki (nM)
All answers are understood in nM, so give the number only.

Query: Name the recorded Ki of the compound listed here: Cc1noc(C)c1S(=O)(=O)Nc1ccc2c(c1)C(=O)CC1(CCN(CCc3cccc4ccccc34)CC1)O2
Response: 0.69

---

# Ki per record follows
Target chain: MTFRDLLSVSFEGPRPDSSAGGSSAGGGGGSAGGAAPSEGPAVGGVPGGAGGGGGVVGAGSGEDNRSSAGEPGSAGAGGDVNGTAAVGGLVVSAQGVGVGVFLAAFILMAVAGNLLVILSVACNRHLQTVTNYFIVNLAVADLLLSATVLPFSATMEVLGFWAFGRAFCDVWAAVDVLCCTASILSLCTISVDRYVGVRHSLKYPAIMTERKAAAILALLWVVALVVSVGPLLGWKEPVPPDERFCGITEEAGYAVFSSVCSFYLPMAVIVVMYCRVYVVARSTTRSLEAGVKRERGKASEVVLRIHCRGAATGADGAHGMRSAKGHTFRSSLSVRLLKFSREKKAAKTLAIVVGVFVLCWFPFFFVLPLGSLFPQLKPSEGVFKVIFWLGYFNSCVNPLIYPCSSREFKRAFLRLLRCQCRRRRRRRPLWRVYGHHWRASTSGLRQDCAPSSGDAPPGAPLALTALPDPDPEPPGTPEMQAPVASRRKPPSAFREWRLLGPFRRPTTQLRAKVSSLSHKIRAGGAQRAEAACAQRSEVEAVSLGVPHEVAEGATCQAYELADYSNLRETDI
Provide the reading as a plain figure in nM.

In the examples that follow, each entry is paired with its recorded Ki.
In [3]: df
Out[3]:
                                 cpd_smiles  unit_tag  result_value
0     O=C1CC2(CCN(CCc3ccccn3)CC2)Oc2ccccc21        nM          1520
1  O=C1OC2(CCN(CCc3cccc4ccccc34)CC2)Cc2ccccc21        nM            60
2  c1ccc2c(c1)CCC1(CCN(CCc3cccc4ccccc34)CC1)O2        nM            99
3  C1=CC2(CCN(CCc3cccc4ccccc34)CC2)Oc2ccccc21        nM           200

Query: Provide Ki value for the following molecule: Cn1cnc(S(=O)(=O)Nc2ccc3c(c2)C(=O)CC2(CCN(CCc4cccc5ccccc45)CC2)O3)c1
Response: 24

Query: Supply measured Ki of CS(=O)(=O)Nc1ccc2c(c1)C(=O)CC1(CCN(CCc3ccccn3)CC1)O2 in your reply.
Response: 3840
